Can you tell me EC50 for the items I'm about to list?
system: proteasome in Molt-4 cells (human leukemia) (Homo sapiens, UniProt P20618+P28074)
Sequence (P28074 60-263): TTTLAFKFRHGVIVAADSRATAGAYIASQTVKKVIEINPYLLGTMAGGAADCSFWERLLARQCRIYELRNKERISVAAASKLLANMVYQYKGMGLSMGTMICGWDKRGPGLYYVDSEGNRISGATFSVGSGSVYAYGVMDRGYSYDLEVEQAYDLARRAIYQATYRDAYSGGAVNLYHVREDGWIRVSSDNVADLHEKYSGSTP
Sequence (P20618 29-241): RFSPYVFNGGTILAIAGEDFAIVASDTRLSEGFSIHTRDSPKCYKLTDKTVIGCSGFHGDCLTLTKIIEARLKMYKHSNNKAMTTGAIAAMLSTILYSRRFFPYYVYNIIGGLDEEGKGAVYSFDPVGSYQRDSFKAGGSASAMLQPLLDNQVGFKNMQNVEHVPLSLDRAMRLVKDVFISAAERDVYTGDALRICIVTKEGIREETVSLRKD
Assay type: cell-based
testConditions: read-out: MOLT4 (EC50); assay of Example E, inhibition of MOLT4
Where a name gives a salt, the structure may show the parent alone.

The examples below pair each entry with its known result.
{"compound": "CCCCc1ccc(C(=O)N[C@@H](CNC(=O)c2cc(C)nn2C)C(=O)N[C@@H](CC(C)C)B(O)O)cc1 [E.5.29, hydrochloride]", "readoutType": "EC50", "measValue": "< 200 nM"}
{"compound": "CC(C)C[C@H](NC(=O)[C@@H](NC(=O)c1cccc(-c2cccnc2)c1)[C@@H](C)O)B(O)O [E.3.9, hydrochloride salt]", "readoutType": "EC50", "measValue": "< 200 nM"}
{"compound": "COCCOCC(=O)N[C@@H](CCCNC(=N)N[N+](=O)[O-])C(=O)N[C@@H](CC(C)C)B(O)O [E.1.6, HCl salt]", "readoutType": "EC50", "measValue": "2000 to 10000 nM"}
{"compound": "CCCCCCCCS(=O)(=O)N[C@@H](CCCNC(=N)N[N+](=O)[O-])C(=O)N[C@@H](CC(C)C)B(O)O [E.1.15, HCl salt]", "readoutType": "EC50", "measValue": "200 to 2000 nM"}
{"compound": "CCCCc1ccc(C(=O)N[C@@H](CNS(=O)(=O)c2ccc(N3CCOCC3)nc2)C(=O)N[C@@H](CC(C)C)B(O)O)cc1.Cl [E.5.27, hydrochloride]", "readoutType": "EC50", "measValue": "< 200 nM"}

stdin: Look up EC50 of CC(C)C[C@H](NC(=O)[C@H](CCCNC(=N)N[N+](=O)[O-])NC(=O)Cc1ccccc1Cl)B(O)O [E.1.13, HCl salt] and report it.
stdout: 2000 to 10000 nM
